- Subject Of Test: Enoyl-acyl carrier reductase (Toxoplasma gondii)
- Sequence (Q6UCJ9 whole entry): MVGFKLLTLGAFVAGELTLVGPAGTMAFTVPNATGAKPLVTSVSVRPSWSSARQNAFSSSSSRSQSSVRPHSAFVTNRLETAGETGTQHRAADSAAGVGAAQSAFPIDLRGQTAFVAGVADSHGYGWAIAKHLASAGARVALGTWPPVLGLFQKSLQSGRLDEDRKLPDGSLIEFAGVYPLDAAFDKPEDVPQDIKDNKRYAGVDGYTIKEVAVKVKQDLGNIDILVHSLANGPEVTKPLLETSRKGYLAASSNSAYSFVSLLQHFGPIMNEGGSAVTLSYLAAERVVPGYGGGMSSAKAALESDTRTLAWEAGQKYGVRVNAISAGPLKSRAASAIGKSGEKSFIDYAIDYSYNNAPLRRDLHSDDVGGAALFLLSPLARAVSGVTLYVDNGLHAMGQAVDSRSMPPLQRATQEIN
- Test Details: Inhibition of Toxoplasma gondii enoyl acyl-carrier protein reductase at 1 uM
Observation Type: inhibition (%)
# unit: % | format: bare number

State the recorded inhibition for this entry: `CCCc1cc(-c2ccc(Oc3ccc(C#N)cc3O)c(Cl)c2)no1`
94

----------
- Subject Of Test: Enoyl-acyl carrier reductase (Toxoplasma gondii)
- Test Details: Inhibition of Toxoplasma gondii enoyl acyl-carrier protein reductase
Observation Type: pIC50
Entry type: numeric. Quantity: pIC50, the -log10 of concentration in molar units.

State the recorded pIC50 for this entry: `Cc1cc(C(=O)NCc2ccc(Oc3ccc(Cl)cc3Cl)c(O)c2)no1`
7.72
